# Ratio CC50/EC50 listing for each entry below
- METHOD: Selectivity index, ratio of CC50 for BHK-21 cells to EC50 for YFV
- Set-up: species or system Yellow fever virus
MEASUREMENT TYPE: Ratio CC50/EC50

- COMPOUND: "FC(F)(F)c1ccc2c(c1)nnn2C[C@@H]1CCCN2CCCC[C@H]12"
  DATA VALUE: ">3.7"
- COMPOUND: "O=c1cnn([C@@H]2O[C@H](CO)[C@@H](O)[C@H]2O)c(=O)[nH]1 [6-AZAURIDINE]"
  DATA VALUE: ">3.8"
- COMPOUND: "C[C@@]1(O)[C@H](O)[C@@H](CO)O[C@H]1n1cnc2c(=O)[nH]c(N)nc21 [2'-B-METHYL-GUANOSINE]"
  DATA VALUE: ">66.7"

* * *

- METHOD: Cytotoxicity against BHK cells assessed as cell viability after 48 to 96 hrs by MTT assay
- Format: cell-based, Mesocricetus auratus
- CONDITION NOTES: hamster
# CC50 listing for each entry below

- COMPOUND: "COc1cc(C(=O)OCCCn2nc3ccccc3n2)cc(OC)c1OC"
  CC50: "> 100 µM"
- COMPOUND: "CN(C)C(=O)Cn1nnc2ccccc21"
  CC50: "> 100 µM"
- COMPOUND: "Clc1cc2nnn(C3CCCCO3)c2cc1Cl (centres undefined)"
  CC50: "> 100 µM"
- COMPOUND: "Cc1ccc2nn(-c3ccc(OCCCC(C)(C)C(=O)O)cc3)nc2c1"
  CC50: "17 µM"
- COMPOUND: "Cc1cc2nnn(C3CCCO3)c2cc1C (centres undefined)"
  CC50: "> 100 µM"
- COMPOUND: "CN(C)c1cccc(C(=O)OCCn2nc3ccccc3n2)c1"
  CC50: "> 100 µM"
- COMPOUND: "O=c1cnn([C@@H]2O[C@H](CO)[C@@H](O)[C@H]2O)c(=O)[nH]1"
  CC50: "> 100 µM"
- COMPOUND: "CC(C)(Oc1ccc(-n2nc3ccc(Cl)cc3n2)cc1)C(=O)O"
  CC50: "75 µM"
- COMPOUND: "CC(CC(=O)O)n1nc2ccc([N+](=O)[O-])cc2n1 (centres undefined)"
  CC50: "> 100 µM"
- COMPOUND: "COc1ccc(Cn2nc3ccc(C(F)(F)F)cc3n2)cc1"
  CC50: "> 100 µM"
- COMPOUND: "NNC(=O)Cn1nnc2ccccc21"
  CC50: "> 100 µM"
- COMPOUND: "Clc1cc2nn(Cc3ccccc3)nc2cc1Cl"
  CC50: "> 100 µM"
- COMPOUND: "[O-][n+]1c2cc(C(F)(F)F)ccc2nn1-c1ccc(O)cc1"
  CC50: "> 100 µM"
- COMPOUND: "Clc1cc2nn(C3CCCO3)nc2cc1Cl (centres undefined)"
  CC50: "> 100 µM"
- COMPOUND: "CC(=O)Nc1ccc(-n2nc3ccccc3n2)cc1"
  CC50: "> 100 µM"
- COMPOUND: "Oc1ccc(-n2nc3ccccc3n2)cc1"
  CC50: "83 µM"
- COMPOUND: "Clc1c(Cl)c(Cl)c2nn(C3CCCO3)nc2c1Cl (centres undefined)"
  CC50: "30 µM"
- COMPOUND: "NCCn1nnc2ccccc21"
  CC50: "> 100 µM"
- COMPOUND: "CC(C)(CCCOc1ccc(-n2nc3ccc(Cl)cc3n2)cc1)C(=O)O"
  CC50: "16 µM"
